- experiment notes: Substrate specificities of KAZ mutants (ZZ-fused, crude enzyme), 6h-CTZ
- Format: biochemical
- measurement context: 1 μg substrate, maximum intensity of luminescence
value type: Relative Luminescence Activity 6h-CTZ Imax

molecule	result
KAZ-V44I-A54I: KAZ mutant with two amino acid substitutions V44I and A54I, SEQ ID NO: 10 (protein) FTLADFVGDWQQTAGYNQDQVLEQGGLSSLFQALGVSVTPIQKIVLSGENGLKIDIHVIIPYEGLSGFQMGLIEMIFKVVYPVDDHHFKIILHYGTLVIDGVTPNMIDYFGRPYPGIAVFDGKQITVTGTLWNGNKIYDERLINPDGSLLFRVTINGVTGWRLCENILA	4.5
KAZ-V44I: KAZ with single amino acid substitution V44I, SEQ ID NO: 4 (protein) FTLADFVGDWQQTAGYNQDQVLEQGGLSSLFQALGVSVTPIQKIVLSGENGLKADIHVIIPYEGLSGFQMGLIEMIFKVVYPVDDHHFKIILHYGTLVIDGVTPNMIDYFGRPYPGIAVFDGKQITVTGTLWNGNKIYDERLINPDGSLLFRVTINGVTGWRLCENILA	0.4
KAZ-V44I-A54I-Y138I: KAZ mutant with three amino acid substitutions V44I, A54I and Y138I, SEQ ID NO: 16 (protein) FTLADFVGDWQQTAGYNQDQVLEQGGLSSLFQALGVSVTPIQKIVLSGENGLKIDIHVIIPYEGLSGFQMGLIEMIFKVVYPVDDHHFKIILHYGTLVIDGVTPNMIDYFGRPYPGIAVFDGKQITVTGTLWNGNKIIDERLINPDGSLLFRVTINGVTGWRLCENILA	12.9

The measured values listed here are drawn from patent US10907134B2.
